Origin of the recorded values: PubChem BioAssay (NCI)

- System: SR leukemia
- experiment: NCI-60 one-dose screen, 48 h
- assaySetup: 10 µM unless noted
- Description: Growth inhibition of the SR human tumor cell line is measured as a screen for anti-cancer activity. Cells are grown in 96 well plates and exposed to the test compound for 48 hours. Compounds are tested at a single concentration, which is 10^-5 M for most compounds. The reported endpoint is percent growth (GI% or GIPRCNT), where numbers from 0 - 100% represent growth inhibition, and numbers from -100% - 0 represent cell death. For example, a value of 40 represents 60% growth inhibition. […]
Compounds without any hit were thinned out: in the full panel of roughly 83,000, 20% have a hit. Active and inactive are the calls of the source. How the source made its calls: active means growth percent below 10; inactive means the rest.
Can you answer with just one of these options? true (1) = active, false (0) = inactive

| compound | discreteLabel |
| --- | --- |
| CC(N)C(Cc1ccccc1)c1ccc(Cl)cc1 (stereo unspecified) | false (0) |
| Cc1nc(N)sc1-c1ccnc(Nc2ccc(N3CCOCC3)cc2)n1 | true (1) |

Short answer needed: outcome of this test for "CCN(CC)Cc1cc(Nc2cc(C(F)(F)F)c(C#N)c3nc4ccccc4n23)ccc1O" ?
false (0)

###

- Test system: SK-OV-3 ovarian
- experiment: NCI-60 one-dose screen, 48 h (100 = growth as untreated, 0 = no growth, -100 = all killed)
- assaySetup: 10 µM unless noted
This is part of a sample that, as a whole, favours compounds with a hit. Of some 83,000 tested, about 20% had one in any assay.
Class (by growth) -- low: < -60%; intermediate: ≥ -60% and < 40%; high: ≥ 40%

| smilesStructure | discreteLabel |
| --- | --- |
| Nc1c2c(c(O)c3c1=C(CO)C=N3)=NCCS2 | low |

Category of "ClCc1ccc(-c2ccc(Cn3cnc4nc(Cl)nc(Cl)c43)cc2)cc1" :
high

Category of "NC(=O)c1n[nH]n2c1nc(=O)c1c3c(sc12)CCCC3" :
high

Category of "CN1CCN(CCOc2cc(OC3CCOCC3)c3c(Nc4c(Cl)ccc5c4OCO5)ncnc3c2)CC1" :
intermediate

Category of "CC[C@@H]1C(=O)N(C)c2cnc(Nc3ccc(C(=O)NC4CCN(C)CC4)cc3OC)nc2N1C1CCCC1" :
low

Category of "CC/C(=C(/c1ccc(Cl)cc1)c1ccc(OCCN2CCCCC2)cc1)c1ccc(Cl)cc1" :
high

Category of "Cc1cc(-c2cc(O)ccc2Cl)cc2nnc(Nc3ccc(OCCN4CCCC4)cc3)nc12" :
low

Category of "Cc1cc(N(CCNc2ccnc3cc(Cl)ccc23)Cc2cccs2)nc(Cl)n1" :
intermediate

###

- Test system: UACC-257 melanoma
- experiment: NCI-60 one-dose screen, 48 h (100 = growth as untreated, 0 = no growth, -100 = all killed)
- assaySetup: 10 µM unless noted
- Procedure: Cells are grown in 96 well plates and exposed to the test compound for 48 hours. Compounds are tested at a single concentration, which is 10^-5 M for most compounds. The reported endpoint is percent growth (GI% or GIPRCNT), where numbers from 0 - 100% represent growth inhibition, and numbers from -100% - 0 represent cell death. For example, a value of 40 represents 60% growth inhibition. A value of 0 means no net growth occurred over the course of the experiment. […]
Compounds without any hit were thinned out: in the full panel of roughly 83,000, 20% have a hit. Activity calls are given as the source filed them. Rule for the calls: active = growth percent below 10; inactive = the rest.
Reported growth values follow for various molecules

See these solved cases before continuing.
| molecule | assayedSystem | growth |
| --- | --- | --- |
| CCn1c(-c2nonc2N)nc2c(C#CC(C)(C)O)ncc(OC[C@H]3CCCNC3)c21 | UACC-257 melanoma | 130% (inactive) |
| O=C(Nc1cnn2ccc(N3CCC[C@@H]3c3cc(F)ccc3F)nc12)N1CC[C@H](O)C1 | UACC-257 melanoma | 70.8% (inactive) |
| COc1cc2c(cc1O)c(=O)n(CCN(C)C)c1c3cc4c(cc3ncc21)OCO4 | UACC-257 melanoma | -47.6% (active) |

Now consider a different molecule.
State growth (UACC-257 melanoma) of "COc1ccc2c(OCc3nnc4ccc(-c5ccccc5)nn34)ccnc2c1" .
120% [2.5 µM] (inactive)
